For each of the compounds below, state its log10(GI50).
test system: PC-9; test: Cell proliferation assay, PC-9 cells (CellTiter-Glo, 72 hours); type: cell-based; details: Homo sapiens, PC-9, 72 h, PC9 cells, CellTiter-Glo, read-out: PC9 GI50
Please keep in mind that the values are log10 of GI50 expressed in µM.

Would you kindly share the measured log10(GI50) for C[C@@H]1CCCOc2c(cnn2C)-c2cc(cn(C)c2=O)C(=O)Nc2nc3ccc(N(C)CCN(C)C)cc3n2C1 ?
-1.85

Continue with C[C@@H]1CCCOc2c(cnn2C)-c2cc(cn(C)c2=O)C(=O)Nc2nc3ccc(N4CC5CC4CN5C)cc3n2C1 (stereo partly shown)
-1.46

Continue with C[C@@H]1CCCOc2c(cnn2C)-c2cc(cn(C)c2=O)C(=O)Nc2nc3ccc(N4CCC(N(C)C)C4)cc3n2C1 (stereo partly shown)
-1.68

Note, next up: CN(C)CCC1CN(c2ccc3nc4n(c3c2)C23CCC(CN(CCOc5c(cnn5C)-c5cc(cn(C)c5=O)C(=O)N4)C2)C3)C1 (single isomer, unassigned) [Example A95B]
0.39

Now the same for Cn1ncc2c1OCCN1CC3CCC(CC3)(C1)n1c(nc3ccc(N4CCOCC4)cc31)NC(=O)c1cc-2c(=O)n(C)c1
-1.08

Please answer likewise for C[C@@H]1CCCOc2c(cnn2C)-c2cc(cn(C)c2=O)C(=O)Nc2nc3ccc(N4CC5(CN(C)CCO5)C4)cc3n2C1
-2.15

Request: CN1CCN(c2ccc3nc4n(c3c2)C23CCC(CC2)CN(CCOc2c(cnn2C)-c2cc(cn(C)c2=O)C(=O)N4)C3)CC1
-1.36

Same read-out for C[C@@H]1CCCOc2c(cnn2C)-c2cc(cn(C)c2=O)C(=O)Nc2nc3ccc(N4CCC5(CCN(C)C5)C4)cc3n2C1 (stereo partly shown) ?
-2.04

Likewise for C[C@@H]1CCCOc2c(cnn2C)-c2cc(cn(C)c2=O)C(=O)Nc2nc3ccc(N4CC5(CCN(C)C5)C4)cc3n2C1 ?
-2.60

Likewise for CCn1cc2cc(c1=O)-c1cnn(C)c1OCCC[C@@H](C)Cn1c(nc3ccc(N4CCN(C)CC4)cc31)NC2=O ?
-0.82

Can you handle C[C@@H]1CCCOc2c(cnn2C)-c2cc(cn(C)c2=O)C(=O)Nc2nc3ccc(N4CCN(CC(F)(F)F)CC4)cc3n2C1 next?
-1.29

// next record C[C@@H]1CCCOc2c(cnn2C)-c2cc(cn(C)c2=O)C(=O)Nc2nc3ccc(N4CCC(N(C)C)C(F)(F)C4)cc3n2C1 (stereo partly shown)
-1.21

Repeat with Cn1ncc2c1OCCN1CCCCC(C)(C1)n1c(nc3ccc(N4CCOCC4)cc31)NC(=O)c1cc-2c(=O)n(C)c1 (stereo not shown)
-0.53
